test: PK characteristics in humans (plasma, LC/MS/MS); assay type: in vivo, human; conditions: human, plasma, oral, 10 mg, Day 1, 10 mg, n=1; read-out: AUC0-24
MEASUREMENT_KIND: AUC(0-t) (ng·h/mL)
Provide only the numeric value, understood in ng·h/mL.

Request: Which AUC(0-t) is listed for Nc1cc(C(F)(F)F)c(-c2nc(N3CCOCC3)c3nc(-c4cccc(NS(=O)(=O)CCCF)c4F)ccc3n2)cn1 ?
Result: 622

----------
assay: PK characteristics in humans (plasma, LC/MS/MS); assay type: in vivo, human; conditions: human, plasma, oral, 400 mg, steady state, 400 BID mg, n=1, cancer patients; read-out: Cmax
MEASUREMENT_KIND: Cmax (ng/mL)
Provide only the numeric value, understood in ng/mL.

Request: Which Cmax is listed for Nc1cc(C(F)(F)F)c(-c2nc(N3CCOCC3)c3nc(-c4cccc(NS(=O)(=O)CCCF)c4F)ccc3n2)cn1 [CMPD A] ?
Result: 5990

The values you see were collected from patent US10695296B2.
